- System: U87MG pLVX-IDH2 R140Q-neo cells
- experiment_description: U87MG pLVX-IDH2 R140Q-neo cell based assay, 2-HG in media by LC-MS at 48 hours
- test_context: Homo sapiens, U-87 MG
Assignment: determine reported IC50 for the given molecules.

Field: example entries. Status: answers known.
> print(dat)
                                   molecule       obs.value
1   Cc1ccc(Nc2nc(NC(C)C)nc(-c3ccccc3)n2)cn1  100 to 1000 nM
2  CC(C)Nc1nc(Nc2ccnc(C3(O)CC3)c2)nc(-c2cccc(C(F)(F)F)n2)n1        < 100 nM
3  CC(O)CNc1nc(Nc2ccccc2)nc(-c2ccccc2)n1 (stereo not drawn)  100 to 1000 nM
4  CC(C)CNc1nc(Nc2cccc(S(C)(=O)=O)c2)nc(-c2cccc(C(F)(F)F)n2)n1        < 100 nM

Would you be so kind as to report IC50 for each listed record?
1. CS(=O)(=O)c1cc(Cl)cc(Nc2nc(NCC3CC3)nc(-c3cccc(C(F)(F)F)n3)n2)c1
2. c1ccc(Nc2nc(NC3CC3)nc(-c3ccccc3)n2)cc1
3. CCCCNc1nc(Nc2ccncc2)nc(-c2ccccc2)n1
4. c1ccc(-c2nc(Nc3ccncc3)nc(NC3CCC3)n2)cc1
5. CC(C)Nc1nc(Nc2cnn(C)c2)nc(-c2ccccc2)n1

1: < 100 nM; 2: < 100 nM; 3: 100 to 1000 nM; 4: < 100 nM; 5: 100 to 1000 nM
